Each record here notes measured chemical recovery into PDMS.
EXPERIMENT: chemical recovery into PDMS from spiked human plasma; higher = better extraction
STATED_CONDITIONS: pooled human plasma; extraction method: PES with PDMS; equilibration time (d): 3
Your answer is read as %, so omit the unit and give the number.

CNC(=O)CSP(=O)(OC)OC [Omethoate]	5.92

Value of chemical recovery into PDMS reported for the molecule O=P(c1ccccc1)(c1ccccc1)c1ccccc1 [Triphenylphosphine oxide] is 44.6

The value of chemical recovery into PDMS measured for the molecule CCCCCCCCCCCCCC[N+](C)(C)[O-] [N,N-Dimethyltetradecylamine-N-oxide] turned out to be 1.2

====

EXPERIMENT: chemical recovery from spiked human plasma; higher = better extraction
STATED_CONDITIONS: pooled human plasma; extraction method: SPE only (HLB 96-well)
MEASURED_ENDPOINT: chemical recovery (%)
Just the number in %, nothing appended.

Previously resolved entries follow.
CCNc1nc(NC(C)(C)C)nc(SC)n1	46.2
CC(COc1ccc(Oc2ccccc2)cc1)Oc1ccccn1 (stereo not given)	39.7
O=S(=O)(O)C(F)(F)C(F)(F)C(F)(F)C(F)(F)C(F)(F)C(F)(F)C(F)(F)F	35.6
Clc1ccc(-c2ccc(Cl)cc2Cl)cc1	5.86
O=C1CCCCCCCCCCCN1	53.4

Measured chemical recovery, `CS(=O)(=O)OC[C@H](O)[C@@H](O)COS(C)(=O)=O` : 18.7

Kindly note the recorded chemical recovery for `CCCCCCCCCCC[C@@H](C[C@@H]1OC(=O)[C@H]1CCCCCC)OC(=O)[C@H](CC(C)C)NC=O` , which is 3.21

compound CC(C)NCC(O)COc1ccc(CC(=O)O)cc1 (stereo not given) [Metoprolol acid] , chemical recovery observed: 33.5

Value of chemical recovery reported for the compound CCOC(=O)CC(O)(CC(=O)OCC)C(=O)OCC [Triethylcitrate] is 38.1

response.value for `N#Cc1c[nH]cc1-c1cccc2c1OC(F)(F)O2` (field: chemical recovery) = 40.1

Measured chemical recovery of COCC(C)N(C(=O)CCl)c1c(C)csc1C (stereo not given) : 53.9

Record `CCCCCCOC(=O)c1ccccc1C(=O)c1ccc(N(CC)CC)cc1O` , field chemical recovery: 26.5

Sure, the documented chemical recovery for Cc1cccc(Nc2ccncc2S(=O)(=O)NC(=O)NC(C)C)c1 [Torasemide] is 43.8

Reported chemical recovery of `O=C(Nc1ccccc1)N(Cc1ccc(Cl)cc1)C1CCCC1` : 28.4
